Source of measurements: patent US9434763B2

target: His tagged recombinant human tissue transglutaminase (His6-rh-TG2) (Homo sapiens); assay: Inactivation of human tissue transglutaminase, fluorescence assay with Abz-APE(CAD-DNP)QEA-OH; details: substrate Abz-APE(CAD-DNP)QEA-OH, 37° C., pH=7.5
Sequence (P21980 whole entry): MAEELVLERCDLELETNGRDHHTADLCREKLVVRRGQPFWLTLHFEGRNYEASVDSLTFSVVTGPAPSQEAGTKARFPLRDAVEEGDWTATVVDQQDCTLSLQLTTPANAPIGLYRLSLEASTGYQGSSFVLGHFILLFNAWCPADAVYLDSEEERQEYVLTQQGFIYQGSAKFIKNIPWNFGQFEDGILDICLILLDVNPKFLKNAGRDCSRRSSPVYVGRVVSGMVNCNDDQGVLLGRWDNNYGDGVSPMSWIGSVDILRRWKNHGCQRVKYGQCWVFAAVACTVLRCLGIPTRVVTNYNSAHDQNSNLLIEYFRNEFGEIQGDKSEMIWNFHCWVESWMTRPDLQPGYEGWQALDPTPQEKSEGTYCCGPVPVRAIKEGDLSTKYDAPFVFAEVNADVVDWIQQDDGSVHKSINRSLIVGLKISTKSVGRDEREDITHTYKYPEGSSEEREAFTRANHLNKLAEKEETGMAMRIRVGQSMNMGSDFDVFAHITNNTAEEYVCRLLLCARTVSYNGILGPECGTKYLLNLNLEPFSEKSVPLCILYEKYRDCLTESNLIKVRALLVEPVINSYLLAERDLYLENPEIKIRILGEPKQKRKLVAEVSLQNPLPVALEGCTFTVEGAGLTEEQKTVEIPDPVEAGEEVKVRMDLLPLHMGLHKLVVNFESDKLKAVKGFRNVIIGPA
Readout Type: IC50 (nM)

Solved entries (count: 5):
{"Compound": "CCOC(=O)/C=C/CC[C@H](NC(C)=O)C(=O)Nc1cccn(CC(=O)N[C@@H](CC(C)(C)C)C(=O)OC)c1=O", "Study System": "His tagged recombinant human tissue transglutaminase (His6-rh-TG2) (Homo sapiens)", "IC50 (nM)": 131}
{"Compound": "CCOC(=O)/C=C/CC[C@H](NC(C)=O)C(=O)Nc1cccn(CC(=O)N[C@H](C(=O)OC)C(C)C)c1=O", "Study System": "His tagged recombinant human tissue transglutaminase (His6-rh-TG2) (Homo sapiens)", "IC50 (nM)": 84}
{"Compound": "CCOC(=O)/C=C/CC[C@H](NC(C)=O)C(=O)Nc1cccn(CC(=O)NCC(C)CC)c1=O (stereo partly drawn)", "Study System": "His tagged recombinant human tissue transglutaminase (His6-rh-TG2) (Homo sapiens)", "IC50 (nM)": 119}
{"Compound": "CCOC(=O)/C=C/CC[C@H](NC(=O)CCC(=O)O)C(=O)Nc1cccn(CC(=O)N2CCC(C(F)(F)F)CC2)c1=O", "Study System": "His tagged recombinant human tissue transglutaminase (His6-rh-TG2) (Homo sapiens)", "IC50 (nM)": 1230}
{"Compound": "CCOC(=O)/C=C/CC[C@H](NC(C)=O)C(=O)Nc1cccn(CC(=O)NCCN(C)C)c1=O", "Study System": "His tagged recombinant human tissue transglutaminase (His6-rh-TG2) (Homo sapiens)", "IC50 (nM)": 5200}

(1) CCOC(=O)/C=C/CC[C@H](NC(=O)c1cc(C(F)(F)F)cc(C(F)(F)F)c1)C(=O)Nc1cccn(CC(=O)NCCC(C)C)c1=O
(2) CCOC(=O)/C=C/CC[C@H](NC(C)=O)C(=O)Nc1cccn(CC(=O)NCCN2CCCC2)c1=O
(3) CCOC(=O)/C=C/CC[C@H](NC(=O)c1cccnc1)C(=O)Nc1ccc(C)n(CC(=O)NCCc2ccccc2)c1=O
Ascending sort, IC50. Reply with the item labels sorted in the order that was asked for.
1, 3, 2
(1: 63 nM, 3: 251 nM, 2: 3300 nM)

(a) CCOC(=O)/C=C/CC[C@H](NC(C)=O)C(=O)Nc1cccn(CC(=O)N[C@H](C(=O)OC)[C@H](C)CC)c1=O
(b) CCC(CC)CNC(=O)Cn1cccc(NC(=O)[C@H](CC/C=C/C(=O)OC)NC(C)=O)c1=O
Higher IC50 between a and b ? # respond with the chosen item's label
a

----------
Biological target: TG1 (transglutaminase 1) (Homo sapiens)
Sequence (P22735 1-817): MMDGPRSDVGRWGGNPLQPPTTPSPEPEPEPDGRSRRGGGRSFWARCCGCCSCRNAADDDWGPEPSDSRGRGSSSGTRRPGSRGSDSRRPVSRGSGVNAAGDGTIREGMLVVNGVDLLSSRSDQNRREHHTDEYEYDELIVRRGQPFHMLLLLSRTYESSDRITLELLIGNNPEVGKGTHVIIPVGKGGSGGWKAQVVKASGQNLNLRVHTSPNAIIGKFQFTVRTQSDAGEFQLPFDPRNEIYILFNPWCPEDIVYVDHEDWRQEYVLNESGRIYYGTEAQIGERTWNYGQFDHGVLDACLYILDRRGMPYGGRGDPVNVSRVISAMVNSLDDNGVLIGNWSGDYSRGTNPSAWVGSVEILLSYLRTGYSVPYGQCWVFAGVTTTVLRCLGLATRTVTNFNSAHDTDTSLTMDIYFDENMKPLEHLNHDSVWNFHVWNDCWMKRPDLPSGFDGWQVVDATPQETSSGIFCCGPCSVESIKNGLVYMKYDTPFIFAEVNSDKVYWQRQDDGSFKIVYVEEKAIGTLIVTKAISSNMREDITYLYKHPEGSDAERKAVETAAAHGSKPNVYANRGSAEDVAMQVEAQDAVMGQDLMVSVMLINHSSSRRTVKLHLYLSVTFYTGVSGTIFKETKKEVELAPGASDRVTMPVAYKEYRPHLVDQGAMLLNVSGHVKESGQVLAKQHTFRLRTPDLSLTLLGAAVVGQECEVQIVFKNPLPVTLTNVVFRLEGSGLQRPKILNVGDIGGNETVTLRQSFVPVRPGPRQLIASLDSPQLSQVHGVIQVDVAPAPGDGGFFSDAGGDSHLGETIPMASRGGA
Readout Type: IC50 (µM)

As a guide, the following entries are already answered.
{"Smiles Code": "CC[C@@H](C)[C@H](NC(=O)Cn1cccc(NC(=O)[C@H](CC/C=C/C(=O)OC)NC(=O)c2cncn2C)c1=O)C(=O)O", "Study System": "TG1 (transglutaminase 1) (Homo sapiens)", "IC50 / µM": 31.1}
{"Smiles Code": "CCOC(=O)/C=C/CC[C@H](NC(=O)CCC(=O)O)C(=O)Nc1cccn(CC(=O)NCC(CC)CC)c1=O", "Study System": "TG1 (transglutaminase 1) (Homo sapiens)", "IC50 / µM": 113}
{"Smiles Code": "CCOC(=O)/C=C/CC[C@H](NC(=O)CCC(=O)O)C(=O)Nc1cccn(CC(=O)NCCC(C)C)c1=O", "Study System": "TG1 (transglutaminase 1) (Homo sapiens)", "IC50 / µM": 91.9}

(A) CCOC(=O)/C=C/CC[C@H](NC(C)=O)C(=O)Nc1cccn(CC(=O)NCCC(CC)CC)c1=O
(B) CCOC(=O)/C=C/CC[C@H](NC(=O)c1ccccc1)C(=O)Nc1cccn(CC(=O)N[C@H](C(=O)O)[C@H](C)CC)c1=O
(C) CCOC(=O)/C=C/CC[C@H](NC(C)=O)C(=O)Nc1cccn(CC(=O)NCC(CC)CC)c1=O
Please list these in order of increasing IC50. Thank you! # list labels per requested ordering
B, A, C

----------
biological target: His tagged recombinant human tissue transglutaminase (His6-rh-TG2) (Homo sapiens); test: Inactivation of human tissue transglutaminase, fluorescence assay with Abz-APE(CAD-DNP)QEA-OH; conditions: substrate Abz-APE(CAD-DNP)QEA-OH, 37° C., pH=7.5
Readout Type: IC50 (µM)

{"Smiles Code": "CCOC(=O)/C=C/CC[C@H](NC(C)=O)C(=O)Nc1cccn(CC(=O)NCCC(C)(C)C)c1=O", "IC50 [µM]": 0.115}

(I) CCOC(=O)/C=C/CC[C@H](NC(=O)CCC(=O)O)C(=O)Nc1cccn(CC(=O)NCCN2CCNC2=O)c1=O
(II) CCOC(=O)/C=C/CC[C@H](NC(C)=O)C(=O)Nc1cccn(CC(=O)N[C@@H](CC(C)C)C(=O)OC)c1=O
# return whichever of I and II has the smaller IC50 To answer, give the label that identifies your chosen option.
II
(II: 0.124 µM, I: 1.8 µM)

----------
Target: TG3 (transglutaminase 3) (Homo sapiens)
Sequence (Q08188 1-693): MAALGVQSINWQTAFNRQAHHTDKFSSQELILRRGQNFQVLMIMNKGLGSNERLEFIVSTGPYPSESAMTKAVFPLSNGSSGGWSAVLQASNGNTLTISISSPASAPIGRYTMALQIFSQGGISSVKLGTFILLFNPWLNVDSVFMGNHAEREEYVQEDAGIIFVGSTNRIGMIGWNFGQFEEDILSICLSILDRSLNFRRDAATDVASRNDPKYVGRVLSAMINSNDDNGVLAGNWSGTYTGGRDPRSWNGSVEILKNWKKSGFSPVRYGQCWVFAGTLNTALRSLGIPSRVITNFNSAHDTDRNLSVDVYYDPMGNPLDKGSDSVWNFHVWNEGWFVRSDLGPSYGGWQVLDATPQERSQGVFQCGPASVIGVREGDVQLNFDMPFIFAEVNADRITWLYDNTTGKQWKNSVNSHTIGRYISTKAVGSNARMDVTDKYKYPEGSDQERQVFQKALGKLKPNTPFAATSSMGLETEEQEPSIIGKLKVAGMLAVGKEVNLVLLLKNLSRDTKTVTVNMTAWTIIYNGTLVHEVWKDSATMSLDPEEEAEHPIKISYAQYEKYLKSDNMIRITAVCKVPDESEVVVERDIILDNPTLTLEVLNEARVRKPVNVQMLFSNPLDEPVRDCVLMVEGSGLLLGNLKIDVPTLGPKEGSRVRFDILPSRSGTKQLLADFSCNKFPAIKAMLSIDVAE
Readout Type: IC50 (µM)

{"Smiles Code": "CCC(CC)CNC(=O)Cn1cccc(NC(=O)[C@H](CC/C=C/C(=O)OC)NC(C)=O)c1=O", "Study System": "TG3 (transglutaminase 3) (Homo sapiens)", "Unit Abbrev": "µM", "IC50": 59.6}
{"Smiles Code": "CCOC(=O)/C=C/CC[C@H](NC(C)=O)C(=O)Nc1cccn(CC(=O)NCC(CC)CC)c1=O", "Study System": "TG3 (transglutaminase 3) (Homo sapiens)", "Unit Abbrev": "µM", "IC50": 99.7}
{"Smiles Code": "COC(=O)/C=C/CC[C@H](NC(C)=O)C(=O)Nc1cccn(CC(=O)NCCC(C)C)c1=O", "Study System": "TG3 (transglutaminase 3) (Homo sapiens)", "Unit Abbrev": "µM", "IC50": 70.9}

(a) CCOC(=O)/C=C/CC[C@H](NC(C)=O)C(=O)Nc1cccn(CC(=O)N[C@H](C(=O)OC)[C@H](C)CC)c1=O
(b) CC[C@@H](C)[C@H](NC(=O)Cn1cccc(NC(=O)[C@H](CC/C=C/C(=O)OC)NC(=O)c2cncn2C)c1=O)C(=O)O
Looking at a and b , which one comes out lower in IC50 terms? Returns: label corresponding to the selected item.
b
(b: 42.3 µM, a: 95.8 µM)
